System: PC-12
MEASUREMENT PROTOCOL: Cytotoxicity against rat PC12 cells at 20 uM after 24 hrs by MTT assay
Type: cell-based
ASSAY SETUP: pc-12, 24 h
OUTCOME MEASURE: Activity

These solved cases illustrate the format of a correct answer.
{"columns": ["ITEM SMILES", "Activity"],
 "data": [
  ["O=c1c(/C=N/c2cc(Cl)ccc2O)coc2ccccc12", "Non-Toxic"],
  ["O=c1c(/C=N/c2ccccc2O)coc2ccccc12", "Non-Toxic"],
  ["Cc1ccc2occ(/C=N/c3ccc(Cl)cc3O)c(=O)c2c1", "Non-Toxic"],
  ["O=c1c(/C=N/c2ccc(Cl)cc2O)coc2ccc(Br)cc12", "Non-Toxic"],
  ["O=c1c(/C=N/c2ncccc2O)coc2ccc(Br)cc12", "Non-Toxic"],
  ["Cc1ccc(/N=C/c2coc3ccccc3c2=O)c(O)c1", "Non-Toxic"],
  ["O=c1c(/C=N/c2cccc(Cl)c2O)coc2ccc(Br)cc12", "Non-Toxic"],
  ["Cc1ccc(/N=C/c2coc3ccc(C)cc3c2=O)c(O)c1", "Non-Toxic"]
]}

Respectfully, I request Activity for each entry included below.
1. O=c1c(/C=N/c2ncccc2O)coc2ccccc12
2. Cc1ccc2occ(/C=N/c3cc([N+](=O)[O-])ccc3O)c(=O)c2c1

1. Non-Toxic
2. Non-Toxic

Your task in this section: give Activity for each listed record.
1. Cc1ccc2occ(/C=N/c3cc(F)ccc3O)c(=O)c2c1
2. Cc1ccc2occ(/C=N/c3cc(Cl)ccc3O)c(=O)c2c1
3. O=c1c(/C=N/c2cc(F)ccc2O)coc2ccc(Br)cc12
4. O=c1c(/C=N/c2cc(F)ccc2O)coc2ccccc12
5. O=c1c(/C=N/c2cc3ccccc3cc2O)coc2ccccc12
6. Cc1ccc(O)c(/N=C/c2coc3ccc(Br)cc3c2=O)c1
7. Cc1ccc2occ(/C=N/c3ncccc3O)c(=O)c2c1

1. Non-Toxic
2. Non-Toxic
3. Non-Toxic
4. Non-Toxic
5. Non-Toxic
6. Non-Toxic
7. Non-Toxic

---

Species: Homo sapiens
MEASUREMENT PROTOCOL: Selectivity index, ratio of IC50 for recombinant human MAO-A expressed in baculovirus infected BTI insect cells to IC50 for recombinant human MAO-B expressed in baculovirus infected BTI insect cells
Exercise: state measured Ratio IC50 for each of the compounds provided.
Numbers only.

Example entries begin here.
{"columns": ["ITEM SMILES", "OBSERVED"],
 "data": [
  ["O=c1c(/C=N/c2cc(F)ccc2O)coc2ccccc12", 2.61],
  ["Cc1ccc(O)c(/N=C/c2coc3ccc(C)cc3c2=O)c1", 6.21],
  ["Cc1ccc2occ(/C=N/c3ccc(Cl)cc3O)c(=O)c2c1", 2.86]
]}

Below is a list of compounds. For each, state its recorded Ratio IC50.
1. O=c1c(/C=N/c2cc3ccccc3cc2O)coc2ccccc12
2. Cc1ccc2occ(/C=N/c3cc([N+](=O)[O-])ccc3O)c(=O)c2c1
3. Cc1ccc(/N=C/c2coc3ccccc3c2=O)c(O)c1

1: 0.52; 2: 4.43; 3: 0.44

---

Organism: Homo sapiens
MEASUREMENT PROTOCOL: Selectivity index, ratio of IC50 for recombinant human MAO-A expressed in baculovirus infected BTI insect cells to IC50 for recombinant human MAO-B expressed in baculovirus infected BTI insect cells
OUTCOME MEASURE: Ratio IC50
Numbers only.

{"columns": ["ITEM SMILES", "OBSERVED"],
 "data": [
  ["O=c1c(/C=N/c2cc(Cl)ccc2O)coc2ccc(Br)cc12", 1.39]
]}

// batch mode: one Ratio IC50 value per listed entry
1. Cc1ccc(O)c(/N=C/c2coc3ccccc3c2=O)c1
2. O=c1c(/C=N/c2ccc(Cl)cc2O)coc2ccccc12
3. Cc1ccc2occ(/C=N/c3cc(F)ccc3O)c(=O)c2c1
4. Cc1ccc(O)c(/N=C/c2coc3ccc(Br)cc3c2=O)c1

1: 2.96; 2: 0.8; 3: 1.64; 4: 6.38
